Can you tell me AC50 for the items I'm about to list?
Molecular target: His6-TEV-PPARγ-(234-505) (Homo sapiens, UniProt P37231)
Construct: The His6-TEV-PPARγ-(234-505) protein for assay was expressed and purified; TEV cleavage site (N); made in house
Test: TR-FRET Assay to Measure Co-R Peptide Recruitment to PPARγ
Assay type: biochemical
Details: Co-R peptide (SMRT-ID2) recruitment; top final concentration 20 μM; read-out: TR-FRET i-Ag; AC50
Give bare numbers, in nM.

Examples from the recorded data:
COc1cc(-c2cc(C(=O)N3CC[C@H](C(=O)NC45CC(CO)(C4)OC5C)CC34CC4)n[nH]2)c(F)cn1 (single isomer, unassigned) [Example 518-A]: 130
COc1cc(-c2cc(C(=O)N3CC[C@H](C(=O)NCc4ccc5c(c4)B(O)OC5(C)C)CC34CC4)[nH]n2)c(F)cn1: 1.4

Now consider the entry below.
query: Lab note: need AC50 for COc1cc(-c2cc(C(=O)N3CCC(C(=O)NCC4CCc5nccn5C4)CC34CC4)n[nH]2)c(F)cn1 (mixture of isomers) on His6-TEV-PPARγ-(234-505) (Homo sapiens, UniProt P37231), anyone have it?
result: 113

----------
Biological target: His6-TEV-PPARγ-(234-505) (Homo sapiens, UniProt P37231)
Construct: The His6-TEV-PPARγ-(234-505) protein for assay was expressed and purified; TEV cleavage site (N); made in house
Sequence (P37231 234-505): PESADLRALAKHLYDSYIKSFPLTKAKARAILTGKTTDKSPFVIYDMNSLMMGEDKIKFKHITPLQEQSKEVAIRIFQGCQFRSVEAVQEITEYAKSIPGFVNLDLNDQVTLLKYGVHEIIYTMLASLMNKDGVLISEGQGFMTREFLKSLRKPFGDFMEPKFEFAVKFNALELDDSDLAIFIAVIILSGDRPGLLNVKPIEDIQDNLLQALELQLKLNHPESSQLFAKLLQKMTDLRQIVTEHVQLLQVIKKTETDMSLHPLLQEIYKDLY
Test: TR-FRET Assay to Measure Co-R Peptide Recruitment to PPARγ
Assay type: biochemical
Conditions: Co-R peptide (SMRT-ID2) recruitment; top final concentration 20 μM; read-out: TR-FRET i-Ag; AC50
Doc: threshold 400 nM (exclusive). Items with AC50 beneath it return Satisfied; others return Not satisfied.

Recorded results for 3 molecules are shown here.
COc1cc(-c2cc(C(=O)N3CC[C@H](C(=O)NCc4cccc(Cl)c4)CC34CC4)n[nH]2)c(Cl)cn1 (single isomer, unassigned) [Example 245-A]: Satisfied
COc1cc(-c2cc(C(=O)N3CCC(C(=O)NCC4CC(F)(F)C4)CC3)n[nH]2)c(Cl)cn1 [Example 148]: Not satisfied
COc1cc(-c2cc(C(=O)N3[C@@H]4CC[C@H]3C[C@H](C(=O)NC3CCC(O)(C(F)(F)CO)CC3)C4)n[nH]2)c(F)cn1 (stereo partly shown) [Example 436]: Satisfied

query: Here's an entry: COc1cc(-c2cc(C(=O)N3CCC(C(=O)NCc4cncc(Cl)c4)CC3)n[nH]2)c(Cl)cn1 [Example 179] . Is its AC50 below 400 nM?
result: Satisfied

query: hey, is AC50 for COc1cc(-c2cc(C(=O)N3CCC(C(=O)NC4CCN(CC5(O)COC5)C4)CC34CC4)n[nH]2)c(F)cn1 (mixture of isomers) [Example 454] lower than 400 nM or not?
result: Satisfied
